RUN_DESCRIPTION: Mouse pharmacokinetic study, oral administration
Type: in vivo
CONDITION_INFO: male, C57BL/6, mouse, plasma, po, 100 mg/kg, plasma, male C57BL/6 mice, oral gavage 100 mg/kg, 8 h; read-out: Parent compound concentrations following oral administration, Time 8 h
We begin with a simple list: items and their reported concentration at 8 h.
Write the value in ng/mL as a bare number.

The cases that follow already have their concentration at 8 h on record.
| COMPOUND | TEST_VALUE |
| --- | --- |
| C=C(CC(=O)OC1CCCCCCC1)C(=O)OC(C)c1nnn[nH]1 (centres unmarked) [Example 133] | 101 |
| C=C(CC(=O)O[C@@H](CC)CCCCC)C(=O)OCC(=O)O [Example 170] | 25 |
| C=C(CC(=O)OC1CCCCC1)C(=O)OCC(=O)O [Example 91] | 19 |

In the following, a different compound is considered.
// query Would you mind telling me what concentration at 8 h value was observed for C=C(CC(=O)OCCCCCCCC)C(=O)OCC(=O)O [Example 49] ?
// result 4.5

###

System: IL-1β cytokine output from THP-1s
RUN_DESCRIPTION: THP-1 AlphaLISA IL-1β cytokine assay
Format: cell-based, human
CONDITION_INFO: Homo sapiens, THP-1, PMA-differentiated THP-1 cells, LPS 24 hr then Nigericin 1 hour; read-out: IL-1β (IC50)
pIC50: −log10 of the molar value.
1 means recorded pIC50 is 5 or above; -1 means it is below 5.

Below are worked cases with known answers.
| COMPOUND | ASSIGNED_LABEL |
| --- | --- |
| C=C(CC(=O)OC1(C2CCCCC2)CCC1)C(=O)OCC(=O)O | -1 |
| C=C(CC(=O)OC1CCCCCCC1)C(=O)OCC(=O)N(C)CC(=O)O | -1 |
| C=C(CC(=O)O[C@H](C)CCCCCC)C(=O)OC1CS(=O)(=O)C1 | 1 |
| C=C(C(=O)OCCS(C)(=O)=O)C(C)C(=O)OCCCCCCCC (centres unmarked) | 1 |

Now examine the next entry.
// query // inclusive: pIC50 at least 5? input: C=C(CC(=O)OC1CCCCC1)C(=O)OC1CN(C(C)=O)C1
// result 1

###

Tested on: IL-6 cytokine output from THP-1s
RUN_DESCRIPTION: THP-1 AlphaLISA IL-6 cytokine assay
Type: cell-based, human
CONDITION_INFO: Homo sapiens; PMA-differentiated THP-1 cells, LPS 24 hr then Nigericin 1 hour
We'd kindly ask you to apply these IC50 classes: low bin: < 5 µM; mid bin: ≥ 5 µM and < 20 µM; high bin: ≥ 20 µM

Answered cases to consult:
| SMILES_ENTRY | ASSIGNED_LABEL |
| --- | --- |
| C=C(CC(=O)OCc1ccc(F)cc1)C(=O)OCC(=O)O | high bin |
| C=C(CC(=O)O[C@@H](C)CCCCCC)C(=O)OC1CS(=O)(=O)C1 | low bin |
| C=C(CC(=O)OCC(C)(C)C)C(=O)OCCC(=O)O | high bin |
| C=C(CC(=O)O[C@H](C)CCCCCC)C(=O)OCCN1CCCC1=O | mid bin |
| C=C(CC(=O)OCCCCCCCC)C(=O)OCC(=O)N1CCC[C@H]1C(=O)O | low bin |

// query Please classify: C=C(CC(=O)OCCCCCCCC)C(=O)OCC(C)(C)OC
// result mid bin

// query Lab log: C=C(CC(=O)OCCCC)C(=O)OCCS(C)(=O)=O — assign IC50 category
// result mid bin
